System: K24384-001-R-PDC complex spheroid viability
method: Anticancer human tumor K24384-001-R-PDC patient-derived pancreatic adenocarcinoma cell line growth inhibition
conditionDetails: second compound 0.1 µM; first compound 0.00949 µM; stronger effect = lower value
measurementName: viability, T/C

Completed entries (count: 6):
>>> recordedresult("Nc1ccn(C2OC(CO)C(O)C2(F)F)c(=O)n1 (stereo unspecified) + NC1CCC(NC2CC2c2ccccc2)CC1")
"67.8%"
>>> recordedresult("Nc1ccn(C2OC(CO)C(O)C2(F)F)c(=O)n1 (stereo unspecified) + NC1CC1c1ccc(-c2cccc(O)c2)cc1")
"63.4%"
>>> recordedresult("Nc1ccccc1NC(=O)c1ccc(CNC(=O)OCc2cccnc2)cc1 + NC1CC1c1ccc(-c2cccc(O)c2)cc1")
"111%"
>>> recordedresult("Nc1ccccc1NC(=O)c1ccc(CNC(=O)OCc2cccnc2)cc1 + NC1CCC(NC2CC2c2ccccc2)CC1")
"86.6%"
>>> recordedresult("CCc1c2c(nc3ccc(O)cc13)-c1cc3c(c(=O)n1C2)COC(=O)[C@]3(O)CC + NC1CC1c1ccc(-c2cccc(O)c2)cc1")
"28.5%"
>>> recordedresult("NS(=O)(=O)OCC1CC(n2ccc3c(NC4CCc5ccccc54)ncnc32)CC1O (stereo unspecified) + NC1CCC(NC2CC2c2ccccc2)CC1")
"98.6%"

Next compound, please.
[Q] Let me know recorded viability, T/C for O=C(C=Cc1cccc(S(=O)(=O)Nc2ccccc2)c1)NO + NC1CCC(NC2CC2c2ccccc2)CC1 , thanks.
[A] 109%

====

Tested on: K24384-001-R-PDC complex spheroid viability
method: Anticancer human tumor K24384-001-R-PDC cell line growth inhibition;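 also: spheroids exposed to agents for seven days before luminescence viability reading; 100% = DMSO vehicle control viability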
conditionDetails: second compound 0.316 µM; first compound 1 µM; stronger effect = lower value
viability, T/C listing for selected compounds.
Express the result in % but write the number alone.

>>> recordedresult("O=C(C=Cn1cnc(-c2cc(C(F)(F)F)cc(C(F)(F)F)c2)n1)NNc1cnccn1 + NC1CCC(NC2CC2c2ccccc2)CC1")
21

[Q] Hello, please tell me recorded viability, T/C for this one: CC1COCCN1c1cc(C2(S(C)(=N)=O)CC2)nc(-c2ccnc3[nH]ccc23)n1 (stereo not drawn) + NC1CCC(NC2CC2c2ccccc2)CC1
[A] 57.5

[Q] Annotate the compound CC1(C)CCC(CN2CCN(c3ccc(C(=O)NS(=O)(=O)c4ccc(NCC5CCOCC5)c([N+](=O)[O-])c4)c(Oc4cnc5[nH]ccc5c4)c3)CC2)=C(c2ccc(Cl)cc2)C1 + NC1CC1c1ccc(-c2cccc(O)c2)cc1 with its measured viability, T/C.
[A] 80.4

[Q] Read the entry COc1cc(Nc2ncc3c(n2)-c2ccc(Cl)cc2C(c2c(F)cccc2OC)=NC3)ccc1C(=O)O + NC1CC1c1ccc(-c2cccc(O)c2)cc1 and write its reported viability, T/C.
[A] 58.9

[Q] Give viability, T/C for CC1COCCN1c1cc(-c2ccnn2C)c2ccnc(-c3ccn[nH]3)c2n1 (stereo not drawn) + NC1CC1c1ccc(-c2cccc(O)c2)cc1
[A] 34

[Q] Supply reported viability, T/C belonging to this compound: CC1(C)CCC(CN2CCN(c3ccc(C(=O)NS(=O)(=O)c4ccc(NCC5CCOCC5)c([N+](=O)[O-])c4)c(Oc4cnc5[nH]ccc5c4)c3)CC2)=C(c2ccc(Cl)cc2)C1 + NC1CCC(NC2CC2c2ccccc2)CC1
[A] 94.5

[Q] Write down viability, T/C measured for item CC(C)c1c(-c2ccccc2)nc2c(C#N)c[nH]n2c1=O + NC1CCC(NC2CC2c2ccccc2)CC1
[A] 72.2

[Q] Give viability, T/C for the following compound: O=C(c1cc(Cc2n[nH]c(=O)c3ccccc23)ccc1F)N1CCN(C(=O)C2CC2)CC1 + NC1CCC(NC2CC2c2ccccc2)CC1
[A] 71.2
